Provenance of the data: patent US20190225691A1

Reported Improvement over ref-1 values for the following binders.
Target: T1, human PD-L1 ECD-His (human, UniProt Q9NZQ7 19-238)
T1 construct: extracellular domain; Analyte in all SPR and BLI runs; also called hPD-L1_ECD-His; hPD-L1 ECD-His; not shown: His tag
T1 sequence (Q9NZQ7 19-238): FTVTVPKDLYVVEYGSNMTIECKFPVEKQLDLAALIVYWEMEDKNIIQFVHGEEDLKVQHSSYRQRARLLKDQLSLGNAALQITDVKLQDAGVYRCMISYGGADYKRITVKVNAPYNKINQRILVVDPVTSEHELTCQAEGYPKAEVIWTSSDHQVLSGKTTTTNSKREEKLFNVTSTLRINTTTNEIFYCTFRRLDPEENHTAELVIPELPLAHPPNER
Assay: BLI, ratio of KD to ref-1
Quick note: give the figure in fold, leave out the unit.

// known answers, use as guide
- binder: "PL2#3 mtIgG1 (N297A) (antibody, V domains shown, N297A mutant of human IgG1 Fc backbone) VH: EVQLVQSGGGLVKPGGSLRLSCAASGFTFSSYTMNWVRQAPGKGLEWVSSISSGSDYLYYADSVKGRFTISRDNAKNSLYLQMNSLRAEDTAVYYCARNELRWYPQAGAFDRWGQGTMVTVSS VL: QSVVTQPPSMSAAPGQRVTISCSGSSSYIESSYVGWYQQLPGTAPRLLIYDDDMRPSGIPDRFSGSKSGTSATLAITGLQTGDEADYYCEIWRSGLGGVFGGGTKLTVLS"
  unit-of-measurement: "fold"
  result: 1
- binder: "PL3#7-43 mtIgG1 (antibody, V domains shown, Antibody was biotinylated (NHS-PEG4-biotin, sites not specified) for the Octet assay of Table 11., N297A mutant human IgG1; also called PL3#7-43 parental mtIgG1) VH: QVQLVQSGAEVKKPGSSVKVSCKASGGTFSSYPISWVRQAPGQGLEWMGRIIPILGIANYAQKFQGRVTITADKSTSTAYMELSSLRSEDTAVYYCARSRPGYAFGAFDIWGQGTLVTVSS VL: QSVVTQPPPVSGAPGQRVTISCTGSSSNVGAGYDVHWYQQLPGTAPKLLIYGNSNRSSGVPDRFSGSKSGTSASLAITGLQAEDEADYYCQTYDSSGSARVVFGGGTKLTVLG"
  unit-of-measurement: "fold"
  result: 7.86
- binder: "PL3#7 mtIgG1 (antibody, V domains shown, Antibody was biotinylated (NHS-PEG4-biotin, sites not specified) for the Octet assay of Table 11., N297A mutant human IgG1) VH: QVQLVQSGAEVKKPGSSVKVSCKASGGTFSSYPISWVRQAPGQGLEWIGRIIPILGIANYAQKFQGRVTITADKSTSTAYMELSSLRSEDTAVYYCARSRDGYAFGAFDIWGQGTLVTVSS VL: QSVVTQPPPVSGAPGQRVTISCTGSSSNIGAGYDVHWYQQLPGTAPKLLIYGNSNRPSGVPDRFSGSKSGTSASLAITGLQAEDEADYYCQTYDSSLSARVVFGGGTKLTVLG"
  unit-of-measurement: "fold"
  result: 2.26

What the record says about PL3#7-19 mtIgG1 (antibody, V domains shown, Antibody was biotinylated (NHS-PEG4-biotin, sites not specified) for the Octet assay of Table 11., N297A mutant human IgG1; also called PL3#7-19 parental mtIgG1) VH: QVQLVQSGAEVKKPGSSVKVSCKASGGTFSSYPISWVRQAPGQGLEWMGRIIPILGIANYAQKFQGRVTITADKSTSTAYMELSSLRSEDTAVYYCARSRDGYAFGAFDVWGQGTLVTVSS VL: QSVVTQPPPVSGAPGQRVTISCTGSSSNIGGGYDVHWYQQLPGTAPKLLIYGNSTRPSGVPDRFSGSKSGTSASLAITGLQAEDEADYYCQTYDSSLSATVVFGGGTKLTVLG : Improvement over ref-1 is 4.57
